Target: T1, recombinant human CD70 protein (Acrobiosystems: CDL-H82Q9) (human, UniProt P32970 39-193)
T1 construct: Bought from Acrobiosystems; The whole natural entry is named; also called human CD70His fusion protein; recombinant human CD70 antigen having a C-terminal human IgG Fc tag
T1 sequence (looked up): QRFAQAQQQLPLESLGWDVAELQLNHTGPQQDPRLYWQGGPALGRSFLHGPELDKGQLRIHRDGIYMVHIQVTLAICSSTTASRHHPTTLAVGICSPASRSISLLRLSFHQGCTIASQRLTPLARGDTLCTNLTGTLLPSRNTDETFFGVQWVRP
Test: flow cytometry: CAR on CD70-knockout T cells stained with biotinylated human CD70 protein (100 µg/ml) and PE-Streptavidin
result type: POS (% of cells in the CD70-PE positive gate) (%)
Unit % implied. Number only.

binder	measurement
CD70KO-CAR-3H (receptor, The sheet names the CD70-knockout T cells that carry CD70-CAR-3H; also called CD70-CAR-3H) chimeric antigen receptor chain: QLQLVESGGGLVQPGGSLRLSCAASGNILRFNAVGWYRQAPGKQRDLVAAMAGARTNYADSVEGRFTISGNNANNTVYLQMNSLKPEDTGVYYCGADRVYGPPYEYGGRGTQVTVLSTTTPAPRPPTPAPTIASQPLSLRPEACRPAAGGAVHTRGLDFACDIYIWAPLAGTCGVLLLSLVITLYCKRGRKKLLYIFKQPFMRPVQTTQEEDGCSCRFPEEEEGGCELRVKFSRSADAPAYKQGQNQLYNELNLGRREEYDVLDKRRGRDPEMGGKPRRKNPQEGLYNELQKDKMAEAYSEIGMKGERRRGKGHDGLYQGLSTATKDTYDALHMQALPPR	70.8

# input Which POS (% of cells in the CD70-PE positive gate) value is on record for CD70KO-CAR-1E (receptor, The sheet names the CD70-knockout T cells that carry CD70-CAR-1E; also called CD70-CAR-1E) chimeric antigen receptor chain: EVQVVESGGGLVQAGGSLRLSCAASGFAFDDYAIGWFRQAPGKEQERVSCMSSSDGSTYYADSVKGRFTISSDNAKNTVYLQMNSLKPEDTAVYYCAAGVNYYREDGCPGALDYWGQGTQVTVSSTTTPAPRPPTPAPTIASQPLSLRPEACRPAAGGAVHTRGLDFACDIYIWAPLAGTCGVLLLSLVITLYCKRGRKKLLYIFKQPFMRPVQTTQEEDGCSCRFPEEEEGGCELRVKFSRSADAPAYKQGQNQLYNELNLGRREEYDVLDKRRGRDPEMGGKPRRKNPQEGLYNELQKDKMAEAYSEIGMKGERRRGKGHDGLYQGLSTATKDTYDALHMQALPPR ?
# output 63.9
